Each recorded value in this set is attributed to patent US7173004B2.

- Tested on: HCV replicon (HCV 1b-377-neo replicon cells, Huh7)
- EXPERIMENT: HCV replicon cell-based FRET assay
- TEST PARAMETERS: Hepatitis C virus, Huh-7
EC50 for assorted compounds

>  <COMPOUND>
CCC1(S(=O)(=O)NC(=O)C23CC2C=CCCCS(=O)(=O)CC(NC(=O)OC(C)(C)C)C(=O)N2CC(Oc4nccc5cc(OC)ccc45)CC2C(=O)N3)CC1 (centres unmarked)

>  <EC50>
50 to 500 nM

$$$$
>  <COMPOUND>
CC(C)(C)OC(=O)NC1CN(C(=O)C2CC2)CCCC=CC2CC2(C(=O)NS(=O)(=O)C2CC2)NC(=O)C2CC(Oc3nccc4ccccc34)CN2C1=O (centres unmarked)

>  <EC50>
50 to 500 nM

$$$$
>  <COMPOUND>
COc1ccc2c(OC3CC4C(=O)NC5(C(=O)NS(=O)(=O)C6CC6)CC5C=CCCCOCC(NC(=O)OC5CCCC5)C(=O)N4C3)nc(-c3ccccc3)cc2c1 (centres unmarked)

>  <EC50>
< 50 nM

$$$$
>  <COMPOUND>
COc1ccc2c(OC3CC4C(=O)NC5(C(=O)NS(=O)(=O)C6(C)CC6)CC5C=CCCCSCC(NC(=O)OC(C)C)C(=O)N4C3)nccc2c1 (centres unmarked)

>  <EC50>
< 50 nM

$$$$
>  <COMPOUND>
COc1ccc2c(OC3CC4C(=O)NC5(C(=O)NS(=O)(=O)C6CC6)CC5C=CCOCCCC(NC(=O)OC5CCCC5)C(=O)N4C3)nc(-c3ccccc3)cc2c1 (centres unmarked)

>  <EC50>
< 50 nM

$$$$
>  <COMPOUND>
COc1ccc2c(O[C@@H]3C[C@H]4C(=O)N[C@]5(C(=O)O)C[C@H]5/C=C\CCCOC[C@H](NC(=O)OC(C)(C)C)C(=O)N4C3)nccc2c1

>  <EC50>
500 to 5000 nM

$$$$
>  <COMPOUND>
CC(C)NC(=O)NC1CCCCCC=CC2CC2(C(=O)NS(=O)(=O)C2CC2)NC(=O)C2CC(Oc3nccc4ccccc34)CN2C1=O (centres unmarked)

>  <EC50>
< 50 nM

$$$$
>  <COMPOUND>
COc1ccc2c(OC3CC4C(=O)NC5(C(=O)NS(=O)(=O)C6CC6)CC5C=CCCCOCC(NC(=O)OC(C)C)C(=O)N4C3)nc(-c3ccccc3)cc2c1 (centres unmarked)

>  <EC50>
< 50 nM

$$$$
>  <COMPOUND>
CCCC1(S(=O)(=O)NC(=O)[C@@]23C[C@H]2/C=C\CCCCC[C@H](NC(=O)OC(C)(C)C)C(=O)N2C[C@H](Oc4nccc5ccccc45)C[C@H]2C(=O)N3)CC1

>  <EC50>
< 50 nM

$$$$
>  <COMPOUND>
CCSC(=O)NC1CCCCCC=CC2CC2(C(=O)NS(=O)(=O)C2CC2)NC(=O)C2CC(Oc3nccc4ccccc34)CN2C1=O (centres unmarked)

>  <EC50>
< 50 nM

$$$$
>  <COMPOUND>
COc1ccc2c(O[C@@H]3C[C@H]4C(=O)N[C@]5(C(=O)NS(=O)(=O)C6CC6)C[C@H]5/C=C\CCCS(=O)(=O)C[C@H](NC(=O)OC(C)(C)C)C(=O)N4C3)nccc2c1

>  <EC50>
50 to 500 nM

$$$$

====

pEC50 for assorted compounds
- Test system: HCV replicon (HCV 1b-377-neo replicon cells, Huh7)
- EXPERIMENT: HCV replicon cell-based FRET assay
- TEST PARAMETERS: Hepatitis C virus, Huh-7
- Method: HCV Replion assays were utilized in the present invention, and were prepared, conducted and validated as follows: […] Huh7 cells, constitutively expressing the HCV replicon, were grown in Dulbecco's Modified Eagle Media (DMEM) containing 10% Fetal calf serum (FCS) and 1 mg/ml G418 (Gibco-BRL). […] After 4 days, cells were first assessed for cytotoxicity using alamar Blue (Trek Diagnotstic Systems) for a CC50 reading. […]
pEC50: −log10 of the molar value.
QUANTITY: pEC50

>  <COMPOUND>
CCC1(S(=O)(=O)NC(=O)C23CC2C=CCCC[S+]([O-])CC(NC(=O)OC(C)(C)C)C(=O)N2CC(Oc4nccc5cc(OC)ccc45)CC2C(=O)N3)CC1 (centres unmarked) [Compound 47]

>  <OBSERVED>
> 7.30

$$$$
>  <COMPOUND>
CC(=O)C(C)(C)OC(=O)NC1CCCCCC=CC2CC2(C(=O)NS(=O)(=O)C2CC2)NC(=O)C2CC(Oc3nccc4ccccc34)CN2C1=O (centres unmarked) [Compound 123]

>  <OBSERVED>
6.30 to 7.30

$$$$
>  <COMPOUND>
COc1ccc2c(OC3CC4C(=O)NC5(C(=O)NS(=O)(=O)C6(C)CC6)CC5C=CCCCSCC(NC(=O)NC5CCCC5)C(=O)N4C3)nccc2c1 (centres unmarked) [Compound 43]

>  <OBSERVED>
> 7.30

$$$$
>  <COMPOUND>
COc1ccc2c(OC3CC4C(=O)NC5(C(=O)O)CC5C=CCCCCCC(NC(=O)OC(C)(C)C)C(=O)N4C3)nccc2c1 (centres unmarked) [Compound 17A]

>  <OBSERVED>
6.30 to 7.30

$$$$
>  <COMPOUND>
CC(C)(C)COC(=O)N1CCCC=CC2CC2(C(=O)NS(=O)(=O)C2CC2)NC(=O)C2CC(Oc3nccc4ccccc34)CN2C(=O)C(NC(=O)OC(C)(C)C)C1 (centres unmarked) [Compound 149]

>  <OBSERVED>
6.30 to 7.30

$$$$
>  <COMPOUND>
CC(C)S(=O)(=O)NC(=O)[C@@]12C[C@H]1/C=C\CCCCC[C@H](NC(=O)OC(C)(C)C)C(=O)N1C[C@H](Oc3nccc4ccccc34)C[C@H]1C(=O)N2 [Compound 3]

>  <OBSERVED>
6.30 to 7.30

$$$$
>  <COMPOUND>
CC(=O)NC1CCCCCC=CC2CC2(C(=O)NS(=O)(=O)C2CC2)NC(=O)C2CC(Oc3nccc4ccccc34)CN2C1=O (centres unmarked) [Compound 26]

>  <OBSERVED>
6.30 to 7.30

$$$$
>  <COMPOUND>
CC(C)(C)OC(=O)N[C@H]1CN(S(=O)(=O)c2ccccc2[N+](=O)[O-])CCC/C=C\[C@@H]2C[C@@]2(C(=O)O)NC(=O)[C@@H]2C[C@@H](Oc3nccc4ccccc34)CN2C1=O [Compound 144]

>  <OBSERVED>
4.30 to 5.30

$$$$
>  <COMPOUND>
O=C(N[C@H]1CCCCC/C=C\[C@@H]2C[C@@]2(C(=O)NS(=O)(=O)C2CC2)NC(=O)[C@@H]2C[C@@H](Oc3nccc4ccccc34)CN2C1=O)O[C@H]1CCOC1 [Compound 15]

>  <OBSERVED>
> 7.30

$$$$
>  <COMPOUND>
CC1(OC(=O)NC2CCCCCC=CC3CC3(C(=O)NS(=O)(=O)C3CC3)NC(=O)C3CC(Oc4nccc5ccccc45)CN3C2=O)CCCC1 (centres unmarked) [Compound 50]

>  <OBSERVED>
> 7.30

$$$$
>  <COMPOUND>
CC1(OC(=O)NC2CCCCCC=CC3CC3(C(=O)NS(=O)(=O)C3CC3)NC(=O)C3CC(Oc4nccc5ccccc45)CN3C2=O)CC1 (centres unmarked) [Compound 59]

>  <OBSERVED>
> 7.30

$$$$

====

- System: HCV replicon (HCV 1b-377-neo replicon cells, Huh7)
- EXPERIMENT: HCV replicon cell-based FRET assay
- TEST PARAMETERS: Hepatitis C virus, Huh-7

>  <MOLECULE>
COc1ccc2c(OC3CC4C(=O)NC5(C(=O)O)CC5C=CCCCSCC(NC(=O)OC(C)(C)C)C(=O)N4C3)nccc2c1 (stereo not drawn) [Compound 18A]

>  <EC50>
500 to 5000 nM

$$$$
>  <MOLECULE>
CC(C)(C)OC(=O)N[C@H]1CN(S(C)(=O)=O)CCC/C=C\[C@@H]2C[C@@]2(C(=O)NS(=O)(=O)C2CC2)NC(=O)[C@@H]2C[C@@H](Oc3nccc4ccccc34)CN2C1=O

>  <EC50>
50 to 500 nM

$$$$
>  <MOLECULE>
COc1ccc2c(OC3CC4C(=O)NC5(C(=O)NS(=O)(=O)C6CC6)CC5C=CCOCCCC(NC(=O)Nc5ccc(C#N)cc5)C(=O)N4C3)nc(-c3ccccc3)cc2c1 (stereo not drawn)

>  <EC50>
50 to 500 nM

$$$$
>  <MOLECULE>
COc1ccc2c(OC3CC4C(=O)NC5(C(=O)NS(=O)(=O)C6(C)CC6)CC5C=CCCCCCC(NC(=O)OC(C)(C)C)C(=O)N4C3)nccc2c1 (stereo not drawn)

>  <EC50>
< 50 nM

$$$$
>  <MOLECULE>
COc1ccc2c(OC3CC4C(=O)NC5(C(=O)NS(=O)(=O)C6CC6)CC5C=CCCCOCC(NC(=O)OCC(C)(C)C)C(=O)N4C3)nc(-c3ccccc3)cc2c1 (stereo not drawn)

>  <EC50>
< 50 nM

$$$$
>  <MOLECULE>
COc1ccc2c(OC3CC4C(=O)NC5(C(=O)NS(=O)(=O)C6CC6)CC5C=CCOCCCC(NC(=O)OC(C)C)C(=O)N4C3)nccc2c1 (stereo not drawn)

>  <EC50>
< 50 nM

$$$$
>  <MOLECULE>
COc1ccc2c(OC3CC4C(=O)NC5(C(=O)NS(=O)(=O)C6CC6)CC5C=CCCCOC(C)C(NC(=O)OC(C)(C)C)C(=O)N4C3)nccc2c1 (stereo not drawn)

>  <EC50>
50 to 500 nM

$$$$
>  <MOLECULE>
COc1ccc2c(OC3CC4C(=O)NC5(C(=O)NS(=O)(=O)C6(C)CC6)CC5C=CCOCCCC(NC(=O)OC(C)(C)C)C(=O)N4C3)nccc2c1 (stereo not drawn)

>  <EC50>
< 50 nM

$$$$
>  <MOLECULE>
CC(C)(C)OC(=O)NC1CCCCCC=CC2CC2(C(=O)NS(=O)(=O)C2CC2)NC(=O)C2CC(Oc3nc(Cl)cc4ccccc34)CN2C1=O (stereo not drawn)

>  <EC50>
< 50 nM

$$$$
>  <MOLECULE>
O=C(NC1CCCCCC=CC2CC2(C(=O)NS(=O)(=O)C2CC2)NC(=O)C2CC(Oc3nccc4ccccc34)CN2C1=O)OC1CCCC1 (stereo not drawn)

>  <EC50>
< 50 nM

$$$$
>  <MOLECULE>
COc1ccc2c(OC3CC4C(=O)NC5(C(=O)NS(=O)(=O)C6(C)CC6)CC5C=CCCCOC(C)C(NC(=O)OCC(C)(C)C)C(=O)N4C3)nccc2c1 (stereo not drawn)

>  <EC50>
50 to 500 nM

$$$$
>  <MOLECULE>
COc1ccc2c(OC3CC4C(=O)NC5(C(=O)NS(=O)(=O)C6CC6)CC5C=CCOCCCC(NC(=O)OCC(C)(C)C)C(=O)N4C3)nccc2c1 (stereo not drawn)

>  <EC50>
< 50 nM

$$$$
